Target desc: Plasmodium vivax (Pv) NMT (Plasmodium vivax (strain Salvador I), UniProt A5K1A2)
Sequence (A5K1A2 1-410): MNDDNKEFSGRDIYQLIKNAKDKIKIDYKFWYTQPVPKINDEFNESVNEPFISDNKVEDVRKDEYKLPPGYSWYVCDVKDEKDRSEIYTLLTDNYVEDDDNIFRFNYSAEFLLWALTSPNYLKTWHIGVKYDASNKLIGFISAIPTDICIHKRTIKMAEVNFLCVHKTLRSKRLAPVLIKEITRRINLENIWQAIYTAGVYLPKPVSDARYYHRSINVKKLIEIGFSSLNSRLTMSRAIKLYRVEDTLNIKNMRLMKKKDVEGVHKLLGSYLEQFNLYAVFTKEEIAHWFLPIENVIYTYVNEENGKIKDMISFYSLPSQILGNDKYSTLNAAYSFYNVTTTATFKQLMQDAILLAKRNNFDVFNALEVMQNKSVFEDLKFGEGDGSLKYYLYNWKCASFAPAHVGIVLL
Procedure text: biochemical
Parameter measured: IC50 (nM)
# number only, unit nM dropped from output

Asked: Quick one: IC50 for C[C@@H]1CN(c2ncc(F)c(N3CC(C(=O)NC(C)(C)c4cnc5ccccn45)C3)n2)CCN1C [Example 84] ?
Given back: 4.6

Asked: Quick one: IC50 for CN1CCN(c2ncc(F)c(N3CC(C(=O)NC(C)(C)c4cnc5c(F)cccn45)C3)n2)CC1 [Example 61] ?
Given back: 13

Asked: Quick one: IC50 for C[C@H]1CN(c2ncc(Cl)c(N3CC(C(=O)NC(C)(C)c4cnc5ccccn45)C3)n2)C[C@H](C)N1C [Example 95] ?
Given back: 34
